Cited source for all entries: patent US8076324B2

molecule	melting point
O=C(O)[C@]1(c2ccccc2)CC[C@@](Oc2ccc(C(F)(F)F)cc2)(c2nc(-c3ccccc3)n(CC3CC3)n2)CC1 [Example 474]	85 °C
Cc1nc([C@]2(OCC3CC3)CC[C@](C(=O)O)(c3ccccc3)CC2)n(CC2CC2)c1-c1ccccc1 [Example 426]	218 °C
CS(=O)(=O)n1c2ccccc2cc1[C@]1(OCC2CC2)CC[C@](C(=O)O)(c2ccccc2)CC1 [Example 440]	152 °C
Cc1c(Br)nc([C@]2(OCC3CC3)CC[C@](C(=O)O)(c3ccc(F)cc3)CC2)n1CC1CC1 [Example 350]	210 °C

###

# study system: myocardial ATP-sensitive potassium channel (SUR2A/Kir6.2) (UniProt Q61743+Q63563)
# Sequence (Q63563 whole entry): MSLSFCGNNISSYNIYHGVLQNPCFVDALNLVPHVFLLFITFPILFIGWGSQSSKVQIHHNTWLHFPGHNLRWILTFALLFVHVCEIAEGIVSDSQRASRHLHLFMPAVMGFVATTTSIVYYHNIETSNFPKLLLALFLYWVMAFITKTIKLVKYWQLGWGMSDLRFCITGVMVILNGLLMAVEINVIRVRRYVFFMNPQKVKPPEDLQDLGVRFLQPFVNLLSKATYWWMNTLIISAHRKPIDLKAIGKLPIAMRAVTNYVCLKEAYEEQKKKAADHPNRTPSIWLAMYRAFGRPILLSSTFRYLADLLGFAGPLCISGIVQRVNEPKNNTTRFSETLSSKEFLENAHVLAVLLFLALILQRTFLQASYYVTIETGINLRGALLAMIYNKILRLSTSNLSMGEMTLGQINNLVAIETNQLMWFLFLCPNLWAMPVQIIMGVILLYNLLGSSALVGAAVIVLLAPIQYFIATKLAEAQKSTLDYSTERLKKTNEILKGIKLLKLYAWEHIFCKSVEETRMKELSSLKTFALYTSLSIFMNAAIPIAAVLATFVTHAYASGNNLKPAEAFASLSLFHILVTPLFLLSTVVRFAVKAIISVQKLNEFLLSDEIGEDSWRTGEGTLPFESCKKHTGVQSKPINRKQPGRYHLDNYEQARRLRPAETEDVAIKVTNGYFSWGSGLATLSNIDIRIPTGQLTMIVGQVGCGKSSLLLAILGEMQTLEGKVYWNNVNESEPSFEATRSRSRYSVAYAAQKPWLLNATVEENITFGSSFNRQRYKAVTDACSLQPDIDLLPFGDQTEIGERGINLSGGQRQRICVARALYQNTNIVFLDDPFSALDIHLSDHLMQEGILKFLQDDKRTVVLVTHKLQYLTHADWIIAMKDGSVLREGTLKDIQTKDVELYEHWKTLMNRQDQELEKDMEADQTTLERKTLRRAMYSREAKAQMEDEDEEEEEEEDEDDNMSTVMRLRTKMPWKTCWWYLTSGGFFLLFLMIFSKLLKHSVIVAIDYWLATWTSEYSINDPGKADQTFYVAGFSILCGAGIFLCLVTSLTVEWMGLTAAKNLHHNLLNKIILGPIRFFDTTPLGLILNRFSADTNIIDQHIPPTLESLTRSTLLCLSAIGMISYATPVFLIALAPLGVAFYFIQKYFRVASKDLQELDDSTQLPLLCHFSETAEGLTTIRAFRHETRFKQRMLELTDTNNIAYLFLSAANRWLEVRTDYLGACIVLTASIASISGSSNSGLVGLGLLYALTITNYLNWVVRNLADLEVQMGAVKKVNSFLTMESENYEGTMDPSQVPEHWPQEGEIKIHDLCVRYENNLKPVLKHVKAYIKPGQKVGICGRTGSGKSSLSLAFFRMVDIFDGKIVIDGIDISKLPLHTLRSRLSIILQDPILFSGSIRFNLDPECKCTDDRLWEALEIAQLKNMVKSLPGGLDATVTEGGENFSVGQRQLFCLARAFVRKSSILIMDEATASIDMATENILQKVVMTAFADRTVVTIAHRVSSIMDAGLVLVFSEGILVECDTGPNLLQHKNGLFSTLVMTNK
# Sequence (Q61743 whole entry): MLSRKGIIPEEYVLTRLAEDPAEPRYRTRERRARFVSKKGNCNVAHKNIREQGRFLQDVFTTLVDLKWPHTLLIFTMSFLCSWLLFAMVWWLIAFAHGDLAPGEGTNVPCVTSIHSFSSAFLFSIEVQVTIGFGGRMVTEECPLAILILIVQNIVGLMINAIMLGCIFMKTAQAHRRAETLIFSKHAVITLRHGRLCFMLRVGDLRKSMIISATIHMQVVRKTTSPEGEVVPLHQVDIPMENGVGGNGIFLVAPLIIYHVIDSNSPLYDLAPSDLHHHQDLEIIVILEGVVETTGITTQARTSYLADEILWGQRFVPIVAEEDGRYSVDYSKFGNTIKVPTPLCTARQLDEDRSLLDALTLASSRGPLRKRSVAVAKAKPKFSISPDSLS
# experiment summary: Rubidium efflux test on HEK293 cells transfected with SUR2A and Kir6.2 (myocardial action)
# settings: HEK293 cells transfected with SUR2A/Kir6.2; KATP channels opened by rilmakalim; 25 min incubation; read-out: IC50 values for the inhibition of the rubidium efflux
# Description: 1) Action on the SUR2A/Kir6.2 potassium channel (myocardial action) The action of the compounds on the ion transport through the myocardial ATP-sensitive potassium channel (SUR2A/Kir6.2) was determined in the rubidium efflux test system described below on human embryonic kidney cells HEK293 which were transfected with the components SUR2A and Kir6.2 (cf. Weyermann et al., Naunyn-Schmiedeberg's Arch. Pharmacol. 369, 374-381 (2004)). […]
Listed molecules paired with reported IC50
observation type: IC50

molecule	observation type	result value
O=C(O)[C@]1(c2ccc(F)cc2)CC[C@@](OCC2CC2)(c2nc3ccccc3n2CC2CC2)CC1 [Example 366]	IC50	< 1 µM
O=C(O)[C@]1(c2ccccc2)CC[C@](OCC2CC2)(c2nc(C3CC3)n(CC3CC3)n2)CC1 [Example 296-2]	IC50	< 1 µM
CCCn1c(Cl)c(C)nc1[C@]1(OCCOC)CC[C@](C(=O)O)(c2ccccc2)CC1 [Example 390]	IC50	< 1 µM
O=C(O)C1(c2ccccc2)CCC(O)(c2c(F)cc(F)cc2F)CC1 (stereo not shown) [Example 98]	IC50	< 1 µM

###

# study system: myocardial ATP-sensitive potassium channel (SUR2A/Kir6.2) (UniProt Q61743+Q63563)
# experiment summary: Rubidium efflux test on HEK293 cells transfected with SUR2A and Kir6.2 (myocardial action)
# settings: HEK293 cells transfected with SUR2A/Kir6.2; KATP channels opened by rilmakalim; 25 min incubation; read-out: IC50 values for the inhibition of the rubidium efflux
pIC50: −log10 of the molar value.

molecule	pIC50
CS(=O)(=O)c1cc(F)cc([C@]2(OCC3CC3)CC[C@](C(=O)O)(c3ccc(F)cc3)CC2)c1	> 6.00
O=C(O)[C@]1(c2ccc(F)cc2)CC[C@@](OCC2CC2)(c2nccn2CC2CC2)CC1	> 6.00
CC(C)(C)c1nc([C@]2(OCC3CC3)CC[C@](C(=O)O)(c3ccccc3)CC2)n(CC2CC2)c1Cl	> 6.00
O=C(O)[C@]1(c2ccccc2)CC[C@@](OCC2CC2)(c2nc3cc(F)ccc3n2CC2CC2)CC1	> 6.00
Cc1nc([C@]2(OCC3CC3)CC[C@](C(=O)O)(c3ccc(S(C)(=O)=O)cc3)CC2)n(CC2CC2)c1Cl	> 6.00
Cc1nc([C@]2(OCCC(C)(C)C)CC[C@](C(=O)O)(c3ccccc3)CC2)n(C)c1Cl	> 6.00
O=C(O)C1(c2ccccc2)CCC(O)(c2cccc(C(F)(F)F)c2)CC1 (centres unmarked)	> 6.00
Cc1ccc(C2(O)CCC(C(=O)O)(c3ccccc3)CC2)cc1F (centres unmarked)	> 6.00
